Known IC50 of a selection of compounds
# EXPERIMENTAL_SYSTEM: UniProtKB P02829
# Sequence (P02829 whole entry): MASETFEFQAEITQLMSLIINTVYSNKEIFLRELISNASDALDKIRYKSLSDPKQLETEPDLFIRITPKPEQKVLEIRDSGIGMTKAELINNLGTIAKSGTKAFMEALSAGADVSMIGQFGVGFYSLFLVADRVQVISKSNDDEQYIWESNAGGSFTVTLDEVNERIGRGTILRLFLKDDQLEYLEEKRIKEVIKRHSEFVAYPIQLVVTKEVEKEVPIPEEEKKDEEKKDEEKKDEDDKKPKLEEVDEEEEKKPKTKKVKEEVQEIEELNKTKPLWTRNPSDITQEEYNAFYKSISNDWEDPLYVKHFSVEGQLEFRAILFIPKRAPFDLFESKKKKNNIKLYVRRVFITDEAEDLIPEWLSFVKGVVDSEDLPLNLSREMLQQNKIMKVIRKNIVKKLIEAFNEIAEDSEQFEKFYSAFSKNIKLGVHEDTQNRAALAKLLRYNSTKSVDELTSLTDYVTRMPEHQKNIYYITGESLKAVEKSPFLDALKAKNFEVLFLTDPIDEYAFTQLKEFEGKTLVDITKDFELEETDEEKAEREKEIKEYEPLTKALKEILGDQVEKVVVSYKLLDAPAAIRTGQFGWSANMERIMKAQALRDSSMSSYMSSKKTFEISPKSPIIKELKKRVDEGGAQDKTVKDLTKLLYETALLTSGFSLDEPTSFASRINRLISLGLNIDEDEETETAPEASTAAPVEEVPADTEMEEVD
# METHOD_SUMMARY: Inhibition of yeast Hsp90 ATPase activity

Request - read-out IC50 | tested on UniProtKB P02829 | compound COc1ccc(-c2cn(C)nc2-c2cc(Cl)c(O)cc2O)cc1OC
> 100 µM

Request - read-out IC50 | tested on UniProtKB P02829 | compound Cc1n[nH]c(-c2cc(Cl)c(O)cc2O)c1-c1ccc(OCCCC#N)cc1
< 1 µM

Request - read-out IC50 | tested on UniProtKB P02829 | compound Cc1[nH]nc(-c2cc(Cl)c(O)cc2O)c1-c1ccc2c(c1)OCCO2
< 1 µM

Request - read-out IC50 | tested on UniProtKB P02829 | compound Cc1n[nH]c(-c2ccc(O)c(Cl)c2)c1-c1ccc2c(c1)OCCO2
> 100 µM
